// cross-source set; read-out = IC50; system = Glutamate receptor ionotropic, NMDA 2B (Rattus norvegicus, UniProt Q00960)
State the value, then name its unit.

Solved cases (5 shown):
SMILES_ENTRY: O=C(C(=O)N1CCC(Cc2ccccc2)CC1)c1c[nH]c2cc(O)ccc12
IC50: 22 nM
//
SMILES_ENTRY: O=C(NC1CCN(CC(=O)c2c[nH]c3ccc(O)cc23)CC1)c1ccc(O)c(O)c1
IC50: 660 nM
//
SMILES_ENTRY: CCc1ccc(CC2CCN(CC(=O)c3c[nH]c4ccc(O)cc34)CC2)cc1
IC50: 71 nM
//
SMILES_ENTRY: O=C(CN1CCC(Cc2ccccc2)CC1)c1c[nH]c2ccc(O)cc12
IC50: 25 nM
//
SMILES_ENTRY: COc1cccc2c(C(=O)CN3CCC(Cc4ccccc4)CC3)c[nH]c12
IC50: 2910 nM

May I ask what IC50 has been recorded for O=C(CN1CCC(Cc2ccccc2)CC1)c1c[nH]c2cccc(O)c12 ?
6640 nM
